Recorded IC50 for the following compounds
system under test: Recombinant human TPH1 (MBP tagged) (Homo sapiens, UniProt P17752)
Construct: cloning full length human TPH1 cDNA in to a bacterial pMAL-c5E expression vector; made in house; host or cells: E. coli BL21 (DE3)
Sequence (P17752 whole entry): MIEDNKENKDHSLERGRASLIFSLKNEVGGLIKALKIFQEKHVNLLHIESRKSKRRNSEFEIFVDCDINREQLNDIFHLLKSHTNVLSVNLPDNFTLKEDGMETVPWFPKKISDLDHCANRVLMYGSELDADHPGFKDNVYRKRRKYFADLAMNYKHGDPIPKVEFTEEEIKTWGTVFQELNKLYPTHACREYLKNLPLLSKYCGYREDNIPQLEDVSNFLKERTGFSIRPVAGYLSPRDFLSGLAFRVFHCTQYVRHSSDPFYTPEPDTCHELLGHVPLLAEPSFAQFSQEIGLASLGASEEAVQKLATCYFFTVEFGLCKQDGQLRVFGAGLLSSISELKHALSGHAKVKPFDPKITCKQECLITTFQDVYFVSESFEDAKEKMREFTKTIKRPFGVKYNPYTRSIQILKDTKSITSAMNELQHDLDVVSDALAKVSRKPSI
assay notes: TPH1 in vitro inhibition assay (kinetic fluorescence)
Format: biochemical
run conditions: read-out: TPH1 Range (TPH1 inhibition IC50)
Description: Recombinant human TPH1 (rTPH1 GenBank™ accession no. NP_004179) was expressed by cloning full length human TPH1 cDNA in to a bacterial pMAL-c5E expression vector to produce maltose-binding protein (MBP) TPH1 fusion proteins. […] TPH1 activities were measured in an assay containing 200 mM ammonium sulfate, 7 mM DTT, 50 μg/mL catalase, 25 μM ammonium iron sulfate, 50 mM MES, pH 7.1. […] Fluorescence reads are recorded in kinetic mode for 300 seconds (5 minutes). […]
measure: IC50

• Nc1nc(O[C@H](c2ccc(-c3ccc(C(=O)O)cc3)cc2)C(F)(F)F)cc(N2CCC3(CC2)CN[C@H](C(=O)O)C3)n1 [Example 55br] = 300 to 3000 nM
• Nc1nc(O[C@H](c2ccc(Cl)cc2-c2ncccn2)C(F)(F)F)cc(N2CCC3(CC2)CN[C@H](C(=O)O)C3)n1 [Example 34ct] = < 50 nM
• Nc1nc(O[C@H](c2ccc(-c3coc4ccccc34)cc2)C(F)(F)F)cc(N2CCC3(CC2)CN[C@H](C(=O)O)C3)n1 [Example 55cz] = 50 to 300 nM
• COc1ccc([C@@H](Oc2cc(N3CCC4(CC3)CN[C@H](C(=O)O)C4)nc(N)n2)C(F)(F)F)c(-n2ccc(C)n2)c1 [Example 10l] = 50 to 300 nM
• COc1ccc(-c2ccc([C@@H](Oc3cc(N4CCC5(CC4)CN[C@H](C(=O)O)C5)nc(N)n3)C(F)(F)F)cc2)cc1OC [Example 55q] = < 50 nM
• Cc1cc(-c2cc(Cl)ccc2[C@@H](Oc2cc(N3CCC4(CC3)CN[C@H](C(=O)O)C4)nc(N)n2)C(F)(F)F)ccc1OC(F)(F)F [Example 34bb] = 50 to 300 nM

Cited source for all entries: patent US11759462B2
